Origin of values: paper PMC12645437

Study System: Q147A mutant degron (ANQS) fused to EGFP (Homo sapiens, UniProt Q96SW2+Q9UKT9, Q147A)
Construct: pLVX-Sprout-IKZF3 130-189aa Q147A (ANQS); expressed in transfected cells
Sequence (Q9UKT9 130-189 Q147A): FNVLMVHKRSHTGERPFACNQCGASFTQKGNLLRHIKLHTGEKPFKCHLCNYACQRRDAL
Sequence (Q96SW2 whole entry, the tested form may be a part): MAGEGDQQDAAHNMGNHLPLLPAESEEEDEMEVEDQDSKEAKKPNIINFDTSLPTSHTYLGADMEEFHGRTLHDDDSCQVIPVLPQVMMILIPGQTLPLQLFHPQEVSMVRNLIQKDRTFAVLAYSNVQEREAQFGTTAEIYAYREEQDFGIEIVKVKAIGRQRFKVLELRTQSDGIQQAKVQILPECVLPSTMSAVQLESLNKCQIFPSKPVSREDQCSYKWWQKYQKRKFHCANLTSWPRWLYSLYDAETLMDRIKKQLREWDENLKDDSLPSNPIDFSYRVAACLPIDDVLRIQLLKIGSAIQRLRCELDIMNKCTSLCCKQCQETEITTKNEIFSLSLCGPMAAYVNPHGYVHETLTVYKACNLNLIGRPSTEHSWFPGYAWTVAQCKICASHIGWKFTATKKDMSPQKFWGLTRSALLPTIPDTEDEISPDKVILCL
Sequence (Q16531 whole entry partner, the tested form may be a part): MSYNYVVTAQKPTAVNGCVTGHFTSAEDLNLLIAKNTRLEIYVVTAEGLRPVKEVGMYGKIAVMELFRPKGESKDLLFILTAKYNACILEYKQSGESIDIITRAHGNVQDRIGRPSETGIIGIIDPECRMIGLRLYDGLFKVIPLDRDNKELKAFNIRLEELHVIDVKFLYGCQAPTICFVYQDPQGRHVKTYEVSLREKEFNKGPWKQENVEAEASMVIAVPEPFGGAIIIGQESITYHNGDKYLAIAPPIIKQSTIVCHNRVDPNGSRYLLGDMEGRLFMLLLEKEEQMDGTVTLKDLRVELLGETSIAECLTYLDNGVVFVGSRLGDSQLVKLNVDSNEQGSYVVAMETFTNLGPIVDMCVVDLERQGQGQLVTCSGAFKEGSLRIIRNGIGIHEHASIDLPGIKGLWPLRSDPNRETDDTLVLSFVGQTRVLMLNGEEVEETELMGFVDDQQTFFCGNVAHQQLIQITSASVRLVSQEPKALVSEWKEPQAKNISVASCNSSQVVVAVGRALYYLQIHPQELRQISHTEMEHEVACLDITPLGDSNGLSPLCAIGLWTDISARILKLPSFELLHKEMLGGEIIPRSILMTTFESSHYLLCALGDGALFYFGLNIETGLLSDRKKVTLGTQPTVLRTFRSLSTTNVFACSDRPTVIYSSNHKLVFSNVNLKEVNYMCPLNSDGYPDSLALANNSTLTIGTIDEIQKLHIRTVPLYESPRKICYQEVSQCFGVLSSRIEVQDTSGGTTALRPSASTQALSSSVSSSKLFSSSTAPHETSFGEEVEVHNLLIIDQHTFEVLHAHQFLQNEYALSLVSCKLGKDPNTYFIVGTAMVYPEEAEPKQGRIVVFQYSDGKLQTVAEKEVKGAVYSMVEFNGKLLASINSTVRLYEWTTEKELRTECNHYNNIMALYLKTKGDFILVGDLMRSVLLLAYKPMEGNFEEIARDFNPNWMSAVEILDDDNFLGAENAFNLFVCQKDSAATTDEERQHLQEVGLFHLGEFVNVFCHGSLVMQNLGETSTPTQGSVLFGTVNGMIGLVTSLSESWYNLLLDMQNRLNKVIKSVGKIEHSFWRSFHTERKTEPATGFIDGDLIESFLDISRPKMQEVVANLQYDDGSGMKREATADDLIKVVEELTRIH
Experimental Protocol: Ratiometric EGFP:mCherry flow cytometry degradation assay, 18 h
Assay type: cell-based
Experimental Parameters: Jurkat, 18 h; Fig 2B; read-out: DMax Q147A/%

| Compound | Dmax (%) |
| --- | --- |
| O=C1CCC(N2C(=O)c3cccc(NCc4cccnc4)c3C2=O)C(=O)N1 (centres unmarked) [Compound 27] | 93 |
| COc1ccc2c(c1)C(=O)N(C1CCC(=O)NC1=O)C2=O (centres unmarked) [Compound 7] | 82 |
| O=C1CCC(N2C(=O)c3cccc(I)c3C2=O)C(=O)N1 (centres unmarked) [Compound 14] | 86 |
| O=C1CCC(N2C(=O)c3cccc(F)c3C2=O)C(=O)N1 (centres unmarked) [Compound 8] | 57 |
| O=C1CCC(N2C(=O)c3cccc(OCc4ccccc4)c3C2=O)C(=O)N1 (centres unmarked) [Compound 30] | 85 |
| O=C1CCC(N2C(=O)c3ccc(I)cc3C2=O)C(=O)N1 (centres unmarked) [Compound 15] | 77 |
| O=C1CCC(N2C(=O)c3ccc(C(F)(F)F)cc3C2=O)C(=O)N1 (centres unmarked) [Compound 18] | 91 |
| O=C1CCC(N2C(=O)c3ccncc3C2=O)C(=O)N1 (centres unmarked) [Compound 36] | 91 |
| Nc1ccc2c(c1)C(=O)N(C1CCC(=O)NC1=O)C2=O (centres unmarked) [Compound 3] | 90 |
| O=C1CCC(N2C(=O)c3ccc(F)cc3C2=O)C(=O)N1 (centres unmarked) [Compound 9] | 89 |
| Cc1ccccc1CNc1cccc2c1C(=O)N(C1CCC(=O)NC1=O)C2=O (centres unmarked) [Compound 28] | 94 |
| CCNc1cccc2c1C(=O)N(C1CCC(=O)NC1=O)C2=O (centres unmarked) [Compound 24] | 96 |
| O=C1CCC(N2C(=O)c3cccnc3C2=O)C(=O)N1 (centres unmarked) [Compound 35] | 60 |
| O=C1CCC(N2C(=O)c3ccc(N4CCOCC4)cc3C2=O)C(=O)N1 (centres unmarked) [Compound 22] | 76 |
| O=C1CCC(N2C(=O)c3cccc(Cl)c3C2=O)C(=O)N1 (centres unmarked) [Compound 10] | 88 |
| CN1CCN(c2ccc3c(c2)C(=O)N(C2CCC(=O)NC2=O)C3=O)CC1 (centres unmarked) [Compound 23] | 79 |
| O=C1CCC(N2C(=O)c3ccc(Br)cc3C2=O)C(=O)N1 (centres unmarked) [Compound 13] | 56 |
